test system: A2780; assay: Growth inhibition of human cisplatin-resistant A2780 cells after 72 hrs; format: functional, cell-based; details: A2780, 72 h
MEASURED_METRIC: IC50 (nM)

SMILES_DATA | IC50 [nM]
CC(=O)O[C@@]1([C@@H]2/C(C)=C(/O)C(=O)C3=C(C)[C@@H](OC(=O)[C@H](O)[C@H](C=C(C)C)NC(=O)OC(C)(C)C)C[C@@](O)([C@H]2OC(=O)c2cccc(Cl)c2)C3(C)C)CO[C@@H]1CCO | 4
CC(=O)O[C@@]1([C@@H]2/C(C)=C(/O)C(=O)C3=C(C)[C@@H](OC(=O)[C@H](O)[C@H](CC(C)C)NC(=O)OC(C)(C)C)C[C@@](O)([C@H]2OC(=O)c2cccc(Cl)c2)C3(C)C)CO[C@@H]1CCO | 4.1
